# Test system: P. aeruginosa
# experiment: Rhamnolipid production assay
# Assay type: cell-based, Pseudomonas aeruginosa
# conditionDetails: Table 4; concentration not given
Checkbox rule: Relative biological activity (%) Rhamnolipid production lower than 90% = criterion met; Relative biological activity (%) Rhamnolipid production not lower than 90% = criterion not met.

[
  {
    "molecule": "CCCCCC(O)C#Cc1ccc(O)c(OC)c1 (racemic) [Compound 23a]",
    "labelValue": "criterion met"
  },
  {
    "molecule": "CCCC(O)CC(=O)/C=C/c1ccc(O)cc1 (centres unmarked) [Compound 11d]",
    "labelValue": "criterion met"
  },
  {
    "molecule": "CCCCC[C@H](O)C#Cc1ccc(O)c(OC)c1 [Compound 23c]",
    "labelValue": "criterion met"
  },
  {
    "molecule": "CCCC(O)CC(=O)/C=C/c1cccc(OC)c1 (centres unmarked) [Compound 11c]",
    "labelValue": "criterion not met"
  }
]

###

# systemTested: RhlR (Pseudomonas aeruginosa)
# Construct: expressed in transfected cells; host or cells: E. coli sdiA variant co-transformed with pJN105R and pSC11 (RhlA::lacZ)
# Sequence (P54292 whole entry): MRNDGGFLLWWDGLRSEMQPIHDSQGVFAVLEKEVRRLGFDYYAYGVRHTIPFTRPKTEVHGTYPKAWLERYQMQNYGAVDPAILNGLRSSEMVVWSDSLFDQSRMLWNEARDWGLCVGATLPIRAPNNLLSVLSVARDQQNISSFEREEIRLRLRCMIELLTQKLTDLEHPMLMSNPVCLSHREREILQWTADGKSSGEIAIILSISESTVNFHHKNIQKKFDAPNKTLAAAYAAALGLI
# experiment: cell-based
# conditionDetails: read-out: Relative RhlR activity Agonism, Table 2; footnotes not given; matches the 100 column of Table 3
activity at 100 µM listing for selected compounds.

[
  {
    "compound": "CCCCCC(O)CCc1ccc(O)c(OC)c1 (stereo not drawn) [Compound 27]",
    "unitsText": "%",
    "activity at 100 µM": 2
  },
  {
    "compound": "CCCC(O)CC(=O)/C=C/c1cc(F)cc(OC)c1 (stereo not drawn) [Compound 11r]",
    "unitsText": "%",
    "activity at 100 µM": 3
  },
  {
    "compound": "CCCC(O)CC(=O)/C=C/c1ccc(N(C)C)cc1 (stereo not drawn) [Compound 11j]",
    "unitsText": "%",
    "activity at 100 µM": 2
  },
  {
    "compound": "CCCC(O)CC(=O)/C=C/c1ccc(F)c(OC)c1 (stereo not drawn) [Compound 11q]",
    "unitsText": "%",
    "activity at 100 µM": 1
  },
  {
    "compound": "CCCCCCC(O)CC(=O)CCc1ccc(O)c(OC)c1 (stereo not drawn) [Compound 5]",
    "unitsText": "%",
    "activity at 100 µM": 3
  },
  {
    "compound": "CCCC(O)CC(=O)CCc1ccc(OC)c(OC)c1 (stereo not drawn) [Compound 12l]",
    "unitsText": "%",
    "activity at 100 µM": 1
  },
  {
    "compound": "CCCC(O)CC(=O)/C=C/c1ccc(F)c(F)c1 (stereo not drawn) [Compound 11o]",
    "unitsText": "%",
    "activity at 100 µM": 2
  },
  {
    "compound": "CCC[C@@H](O)C#Cc1ccc(F)c(F)c1 [Compound 33b, (R)-1-(3,4-Difluorophenyl)hex-1-yn-3-ol]",
    "unitsText": "%",
    "activity at 100 µM": 3
  },
  {
    "compound": "CCCC(O)CC(=O)/C=C/c1ccc(OC)c(OC)c1 (stereo not drawn) [Compound 11l]",
    "unitsText": "%",
    "activity at 100 µM": 1
  },
  {
    "compound": "CCCCCC(O)C#Cc1ccc(F)c(F)c1 (racemic) [Compound 35a, 1-(3,4-Difluorophenyl)oct-1-yn-3-ol]",
    "unitsText": "%",
    "activity at 100 µM": 3
  },
  {
    "compound": "CCCCCC(O)/C=C/c1ccc(O)c(OC)c1 (stereo not drawn) [Compound 15b]",
    "unitsText": "%",
    "activity at 100 µM": 2
  },
  {
    "compound": "CCCC(O)CC(=O)/C=C/c1ccc(O)c(F)c1 (stereo not drawn) [Compound 11m]",
    "unitsText": "%",
    "activity at 100 µM": 2
  },
  {
    "compound": "CCCC(O)CC(=O)/C=C/c1ccc(O)c(O)c1 (stereo not drawn) [Compound 11k]",
    "unitsText": "%",
    "activity at 100 µM": 3
  },
  {
    "compound": "CCCCC(O)C#Cc1ccc(F)c(F)c1 (racemic) [Compound 34a, 1-(3,4-Difluorophenyl)hept-1-yn-3-ol]",
    "unitsText": "%",
    "activity at 100 µM": 4
  },
  {
    "compound": "CCCC(O)CC(=O)/C=C/c1ccc(C)c(C)c1 (stereo not drawn) [Compound 11p]",
    "unitsText": "%",
    "activity at 100 µM": 2
  },
  {
    "compound": "CCCC(O)CC(=O)CCc1ccccc1 (stereo not drawn) [Compound 12b, 5-Hydroxy-1-phenyloctan-3-one]",
    "unitsText": "%",
    "activity at 100 µM": 4
  },
  {
    "compound": "CCCCC[C@H](O)C#Cc1ccc(F)c(F)c1 [Compound 35c, (S)-1-(3,4-Difluorophenyl)oct-1-yn-3-ol]",
    "unitsText": "%",
    "activity at 100 µM": 4
  },
  {
    "compound": "CCCC(O)CC(=O)CCc1ccc(O)cc1 (stereo not drawn) [Compound 12d, 5-Hydroxy-1-(4-hydroxyphenyl)octan-3-one]",
    "unitsText": "%",
    "activity at 100 µM": 3
  }
]

###

# systemTested: RhlR (Pseudomonas aeruginosa)
# Construct: expressed in transfected cells; host or cells: E. coli sdiA variant co-transformed with pJN105R and pSC11 (RhlA::lacZ)
# experiment: cell-based
# conditionDetails: read-out: Relative RhlR activity Agonism, Table 2; footnotes not given; matches the 100 column of Table 3
assayMetric: activity at 100 µM (%)

[
  {
    "compound": "CCCCCC(=O)CCc1ccc(O)c(OC)c1 [Compound 14b, 1-(4-Hydroxy-3-methoxyphenyl)octan-3-one]",
    "unitsText": "%",
    "assayResult": 2
  },
  {
    "compound": "CCCC(O)CC(=O)/C=C/c1ccccc1 (centres unmarked) [Compound 11b, (E)-5-Hydroxy-1-phenyloct-1-en-3-one]",
    "unitsText": "%",
    "assayResult": 4
  },
  {
    "compound": "CCCCCC(=O)C#Cc1ccc(O)c(OC)c1",
    "unitsText": "%",
    "assayResult": 3
  },
  {
    "compound": "CCCCC[C@H](O)C#Cc1ccc(O)c(OC)c1 [Compound 23c]",
    "unitsText": "%",
    "assayResult": 3
  },
  {
    "compound": "CCCCCC(O)CCc1ccc(F)c(F)c1 (centres unmarked) [Compound 16a, 1-(3,4-Difluorophenyl)octan-3-ol]",
    "unitsText": "%",
    "assayResult": 5
  },
  {
    "compound": "CCCCCC(=O)CCc1ccc(F)c(F)c1 [Compound 14a, 1-(3,4-Difluorophenyl)octan-3-one]",
    "unitsText": "%",
    "assayResult": 4
  },
  {
    "compound": "CCCC(O)CC(=O)/C=C/c1cccc(O)c1 (centres unmarked) [Compound 11e]",
    "unitsText": "%",
    "assayResult": 2
  },
  {
    "compound": "CCCCCCCC(O)CC(=O)CCc1ccc(O)c(OC)c1 (centres unmarked)",
    "unitsText": "%",
    "assayResult": 2
  },
  {
    "compound": "CCCC(O)CC(=O)CCc1ccc(Cl)cc1 (centres unmarked) [Compound 12h, 1-(4-Chlorophenyl)-5-hydroxyoctan-3-one]",
    "unitsText": "%",
    "assayResult": 2
  },
  {
    "compound": "CCCCCC(O)/C=C\\c1ccc(O)c(OC)c1 (centres unmarked)",
    "unitsText": "%",
    "assayResult": 3
  },
  {
    "compound": "CCCC(O)CC(=O)/C=C/c1ccc(Cl)cc1 (centres unmarked) [Compound 11h]",
    "unitsText": "%",
    "assayResult": 1
  },
  {
    "compound": "CCCC(O)CC(=O)CCc1ccc(F)cc1 (centres unmarked) [Compound 12g, 1-(4-Fluorophenyl)-5-hydroxyoctan-3-one]",
    "unitsText": "%",
    "assayResult": 2
  },
  {
    "compound": "CCCC(=O)NC1CCCC1 [Compound 1d, N-cyclopentylbutyramide, reference compound]",
    "unitsText": "%",
    "assayResult": 4
  },
  {
    "compound": "CCCC(O)CC(=O)/C=C/c1ccc(O)c(OCC)c1 (centres unmarked) [Compound 11n]",
    "unitsText": "%",
    "assayResult": 1
  },
  {
    "compound": "CCCC(O)CC(=O)CCc1ccc(F)c(F)c1 (centres unmarked) [Compound 12o]",
    "unitsText": "%",
    "assayResult": 1
  },
  {
    "compound": "CCCCC[C@@H](O)C#Cc1ccc(F)c(F)c1 [Compound 35b, (R)-1-(3,4-Difluorophenyl)oct-1-yn-3-ol]",
    "unitsText": "%",
    "assayResult": 3
  },
  {
    "compound": "CCCC[C@@H](O)C#Cc1ccc(F)c(F)c1 [Compound 34b, (R)-1-(3,4-Difluorophenyl)hept-1-yn-3-ol]",
    "unitsText": "%",
    "assayResult": 3
  }
]
